- TESTED_TARGET: MBP (UniProt P0AEX9 27-392 = MBP)
- PROCEDURE_SUMMARY: hIAPP peptide array incubated with MBP alone, immunoblot
Ends that are not written are not given here. cellulose membrane = cellulose membrane support bound via the C-terminal amino acid
PARAMETER_MEASURED: binding result

BINDER: Ac-KCNTATCATQ (cysteine pairing not given here; also: C-terminal residue bound to cellulose membrane, 61-88 (hIAPP1-10 ... hIAPP28-37); also called decamer of the hIAPP peptide array) [hIAPP1-10]
RESULT: no binding

BINDER: Ac-VHSSNNFGAI-{cellulose membrane} (61-88; also called decamer of the hIAPP peptide array) [hIAPP17-26]
RESULT: no binding

BINDER: Ac-ANFLVHSSNN-{cellulose membrane} (61-88; also called decamer of the hIAPP peptide array) [hIAPP13-22]
RESULT: no binding
